- system-under-test: T1, Polycomb protein chromodomain (a.a. 1-90), GST-tagged fusion protein (Drosophila melanogaster, UniProt P26017 1-90)
- T1 construct: range 1-90; also called Polycomb-GST fusion protein; Polycomb chromodomain; not shown: GST tag
- T1 sequence (looked up): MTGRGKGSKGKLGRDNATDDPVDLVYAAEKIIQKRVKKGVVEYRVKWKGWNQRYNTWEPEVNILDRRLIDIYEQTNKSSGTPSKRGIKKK
- measurement-description: peptide microarray, GST-Polycomb chromodomain overlaid on trimethylated peptides, p<0.001 in at least two of three spots
- Description: There are a total of 46 histone peptide sequences (9 a.a. long) with a single lysine-trimethylation site which are conserved between the human and fruit fly H2, H3 and H4 proteins (Table II). […] Each peptide sequence was screened as triplets, and the fluorescence intensity was quantified with background subtraction individually for each spot from the microarray images by ImageJ⁹ and the whole data set was fit to a mixed Gaussian distribution model (FIG. 8, Table III). […]
Primed or numbered codes have the meaning given here. No end group written: not given here. Me3″ = trimethyl (trimethyl-lysine)
reported-property: binding result

1) LATKAARK(Me3″)S (also called H3K27me3; H3.3 27) [LATKAARKS, H3_DROME lysine site 27, trimethylated] : binds
2) PRKQLATK(Me3″)A (also called H3.3 23) [PRKQLATKA, H3_DROME lysine site 23, trimethylated] : binds
3) ASKDLKVK(Me3″)R (also called H2AZ, H2AV 79) [ASKDLKVKR, H2AV_DROME lysine site 79, trimethylated] : binds
4) IQAVLLPK(Me3″)K (also called H2A1 117) [IQAVLLPKK, H2A_DROME lysine site 117, trimethylated] : binds
5) GGAKRHRK(Me3″)V (also called H4 20) [GGAKRHRKV, H4_DROME lysine site 20, trimethylated] : binds
6) EGTKAVTK(Me3″)Y (also called H2B1A 117) [EGTKAVTKY, H2B_DROME lysine site 117, trimethylated] : binds
7) DSGKAKAK(Me3″)A (also called H2AV 15) [DSGKAKAKA, H2AV_DROME lysine site 15, trimethylated] : binds
8) RIHRLLRK(Me3″)G (also called H2A1A 35) [RIHRLLRKG, H2A_DROME lysine site 35, trimethylated] : binds

Values compiled from patent US20130116146A1.
